Molecular target: Neuronal acetylcholine receptor; alpha4/beta2 (Rattus norvegicus, UniProt P09483+P12390)
Sequence (P09483 whole entry): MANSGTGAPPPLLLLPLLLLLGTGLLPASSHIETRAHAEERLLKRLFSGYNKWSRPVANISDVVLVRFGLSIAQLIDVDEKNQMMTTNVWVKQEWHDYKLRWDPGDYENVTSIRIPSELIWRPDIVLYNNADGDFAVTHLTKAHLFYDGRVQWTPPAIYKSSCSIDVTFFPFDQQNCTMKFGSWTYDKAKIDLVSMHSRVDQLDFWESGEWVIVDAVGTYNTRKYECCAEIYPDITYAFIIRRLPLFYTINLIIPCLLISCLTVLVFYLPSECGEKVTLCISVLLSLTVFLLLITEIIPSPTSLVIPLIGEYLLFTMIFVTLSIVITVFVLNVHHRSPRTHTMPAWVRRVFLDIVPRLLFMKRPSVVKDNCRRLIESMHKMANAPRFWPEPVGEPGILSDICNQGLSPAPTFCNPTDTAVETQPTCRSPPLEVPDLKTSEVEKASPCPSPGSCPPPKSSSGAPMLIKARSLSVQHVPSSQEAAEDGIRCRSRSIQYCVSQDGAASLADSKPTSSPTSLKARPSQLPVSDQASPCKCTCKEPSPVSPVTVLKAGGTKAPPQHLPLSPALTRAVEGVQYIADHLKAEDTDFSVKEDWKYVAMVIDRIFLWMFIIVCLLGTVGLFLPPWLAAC
Sequence (P12390 whole entry): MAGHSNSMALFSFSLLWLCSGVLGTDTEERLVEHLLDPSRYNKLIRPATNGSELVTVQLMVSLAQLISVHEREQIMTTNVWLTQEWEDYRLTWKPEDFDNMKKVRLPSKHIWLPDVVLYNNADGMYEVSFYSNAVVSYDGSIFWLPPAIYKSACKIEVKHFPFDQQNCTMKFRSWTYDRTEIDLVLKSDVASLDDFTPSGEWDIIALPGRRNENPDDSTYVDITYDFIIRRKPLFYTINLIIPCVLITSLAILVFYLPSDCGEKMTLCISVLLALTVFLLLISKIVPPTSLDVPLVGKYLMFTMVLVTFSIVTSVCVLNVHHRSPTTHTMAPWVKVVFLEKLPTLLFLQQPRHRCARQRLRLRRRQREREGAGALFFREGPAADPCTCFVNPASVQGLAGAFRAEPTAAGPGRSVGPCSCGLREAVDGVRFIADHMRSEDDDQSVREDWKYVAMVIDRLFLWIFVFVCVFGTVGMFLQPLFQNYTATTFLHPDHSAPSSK
Test: Binding affinity towards Nicotinic acetylcholine receptor alpha4-beta2 using [3H]nicotine as radioligand
Consider the following compounds and their measured Ki readings.

[
  {
    "compound": "C1=C(c2ccc(-c3ccccc3)nc2)C2CCC(CC1)N2 (stereo not given)",
    "modifier sign": "=",
    "Ki [nM]": 21.4
  },
  {
    "compound": "C1=C(c2cccnc2-c2ccccc2)C2CCC(CC1)N2 (stereo not given)",
    "modifier sign": ">",
    "Ki [nM]": 50000
  },
  {
    "compound": "C1=C(c2cnccc2-c2ccccc2)C2CCC(CC1)N2 (stereo not given)",
    "modifier sign": "=",
    "Ki [nM]": 234
  },
  {
    "compound": "C1=C(c2cccnc2)C2CCC(CC1)N2 (stereo not given)",
    "modifier sign": "=",
    "Ki [nM]": 0.43
  },
  {
    "compound": "C1=C(c2cncc(-c3ccccc3)c2)C2CCC(CC1)N2 (stereo not given)",
    "modifier sign": "=",
    "Ki [nM]": 4.8
  }
]

* * *

Consider the following molecules and their measured pKi readings.
Target: Neuronal acetylcholine receptor alpha3/beta4 (Homo sapiens)
Assay: Binding affinity towards alpha3-beta4 subtype of neuronal nicotinic acetylcholine receptor (nAChR) using [3H]epibatidine as radioligand
pKi: −log10 of the molar value.
reported metric: pKi

[
  {
    "molecule": "C1=C(c2cnccc2-c2ccccc2)C2CCC(CC1)N2 (stereo not drawn)",
    "reported metric": "pKi",
    "modifier sign": "=",
    "reading": 5.70
  },
  {
    "molecule": "C1=C(c2cccnc2-c2ccccc2)C2CCC(CC1)N2 (stereo not drawn)",
    "reported metric": "pKi",
    "modifier sign": "<",
    "reading": 4.30
  },
  {
    "molecule": "C1=C(c2cncc(-c3ccccc3)c2)C2CCC(CC1)N2 (stereo not drawn)",
    "reported metric": "pKi",
    "modifier sign": "=",
    "reading": 6.33
  }
]
